Values were extracted from PubChem BioAssay AID2156.

measured target: Potassium voltage-gated channel subfamily KQT member 2 (Rattus norvegicus) (UniProt O88943)
Sequence (O88943 whole entry, looked up): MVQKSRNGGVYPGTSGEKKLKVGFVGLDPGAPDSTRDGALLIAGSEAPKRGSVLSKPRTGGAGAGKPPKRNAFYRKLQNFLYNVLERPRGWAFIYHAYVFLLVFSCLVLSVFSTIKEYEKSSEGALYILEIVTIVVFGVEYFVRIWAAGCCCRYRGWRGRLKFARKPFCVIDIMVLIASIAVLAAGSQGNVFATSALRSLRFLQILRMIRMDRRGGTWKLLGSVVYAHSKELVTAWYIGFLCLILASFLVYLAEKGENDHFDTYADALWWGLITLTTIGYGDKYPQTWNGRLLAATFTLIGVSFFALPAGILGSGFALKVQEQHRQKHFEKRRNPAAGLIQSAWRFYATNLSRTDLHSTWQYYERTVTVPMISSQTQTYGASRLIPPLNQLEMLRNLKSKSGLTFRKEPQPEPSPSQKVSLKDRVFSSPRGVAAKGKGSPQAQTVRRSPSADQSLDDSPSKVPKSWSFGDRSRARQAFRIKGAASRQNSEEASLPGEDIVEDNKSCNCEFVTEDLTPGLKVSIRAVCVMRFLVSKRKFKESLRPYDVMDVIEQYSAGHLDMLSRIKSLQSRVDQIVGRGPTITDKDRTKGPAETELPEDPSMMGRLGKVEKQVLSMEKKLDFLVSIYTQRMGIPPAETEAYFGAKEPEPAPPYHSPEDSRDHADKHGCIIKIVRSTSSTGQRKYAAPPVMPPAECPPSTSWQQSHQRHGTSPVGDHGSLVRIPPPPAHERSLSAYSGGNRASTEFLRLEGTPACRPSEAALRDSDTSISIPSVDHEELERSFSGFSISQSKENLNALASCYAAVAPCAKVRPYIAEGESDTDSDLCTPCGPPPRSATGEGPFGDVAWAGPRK
protocol text: rat KCNQ2 potassium channel inhibitors, primary screen, cell-based, CHO-K1, FluxOR thallium flux, B-score (AID 2156)
experimental context: 20 min, at 10 µM
Among all 310,000 compounds or so, about 3,400 (1.1%) were called active.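 Rule for the calls: active = fluorescence ratio B-score at most minus 3 library SDs, with starting brightness B-score within 2 library SDs (cut at about -5.5 in these data); inactive = the rest, inconclusive results apart.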 Only a selection was taken, and actives are over-represented in it overall.
Pick one: True for active, False for inactive

molecule=CN(Cc1ccccc1)C(=O)CCc1ccccc1 assigned_category=False
molecule=Cc1ccc(-c2cnc(NC(=O)CCC(=O)N(C)Cc3ccccc3)n2C)cc1 assigned_category=True
molecule=CSCc1cc(N(C)C)nc(SCc2ccc(Cl)cc2Cl)n1 assigned_category=True
molecule="CCN(CC(=O)Nc1ccc(NC(C)=O)cc1)C(=O)C1CC(=O)N(Cc2ccc(C)cc2)C1 (configuration not stated)" assigned_category=False
molecule=COc1ccc(-c2cc(C(=O)Nc3ccccc3O)c3ccccc3n2)cc1 assigned_category=False

[ask] Each molecule tested received a call. Report the one for CCCOc1ccc(C2c3c(oc4cc(C)c(C)cc4c3=O)C(=O)N2CCCN2CCOCC2)cc1 (configuration not stated) .
[reply] False

[ask] Each molecule tested received a call. Report the one for Cc1cc2oc(=O)cc(CN3CCN(Cc4ccccc4)CC3)c2cc1C .
[reply] False

[ask] Each molecule tested received a call. Report the one for CN1/C(=C\C(=O)c2oc3ccccc3c2N)C(C)(C)c2ccccc21 .
[reply] False

[ask] Each molecule tested received a call. Report the one for O=C(CCC1CCCCC1)Nc1cc(C(F)(F)F)ccc1N1CCOCC1 .
[reply] False

[ask] Each molecule tested received a call. Report the one for Cc1ccc(-c2nnc(C)c(N3CC(C)OC(C)C3)n2)cc1 (configuration not stated) .
[reply] False
